- Assayed target: hA2AAR (Homo sapiens (Human))
- Sequence (P29274 whole entry): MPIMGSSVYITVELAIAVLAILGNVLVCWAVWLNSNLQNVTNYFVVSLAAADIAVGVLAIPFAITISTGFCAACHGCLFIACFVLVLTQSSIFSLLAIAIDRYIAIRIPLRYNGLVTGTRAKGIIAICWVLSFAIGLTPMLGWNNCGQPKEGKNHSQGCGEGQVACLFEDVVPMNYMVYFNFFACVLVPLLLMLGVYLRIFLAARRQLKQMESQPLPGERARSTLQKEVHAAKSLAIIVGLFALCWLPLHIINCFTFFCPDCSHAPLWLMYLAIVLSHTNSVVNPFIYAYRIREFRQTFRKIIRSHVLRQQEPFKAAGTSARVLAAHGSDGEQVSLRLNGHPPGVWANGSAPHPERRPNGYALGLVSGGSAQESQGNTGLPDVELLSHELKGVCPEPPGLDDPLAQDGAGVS
- Method notes: Radioligand membrane binding assay at hA2A AR ([3H]CGS21680)
- Test conditions: Table 3; read-out: A2A Ki
Experimental endpoint: Ki (nM)
# value in nM; strip the unit string

>  <Compound>
C#CCCCC(=O)Nc1nc2nn(C)cc2c2nc(-c3ccco3)nn12

>  <Ki [nM]>
199

$$$$
>  <Compound>
Cn1cc2c(nc(NC(=O)Nc3ccc(CC(=O)NCCCCN)cc3)n3nc(-c4ccco4)nc23)n1.O=C(O)C(F)(F)F [Compound 18, trifluoroacetate salt]

>  <Ki [nM]>
172

$$$$
>  <Compound>
C#CCCCCC(=O)Nc1nc2nn(C)cc2c2nc(-c3ccco3)nn12

>  <Ki [nM]>
151

$$$$
>  <Compound>
Cn1cc2c(nc(NC(=O)Nc3ccc(CC(=O)O)cc3)n3nc(-c4ccco4)nc23)n1

>  <Ki [nM]>
1010

$$$$
>  <Compound>
Cn1cc2c(nc(NC(=O)Nc3ccc(CC(=O)NCCOCCOCCN)cc3)n3nc(-c4ccco4)nc23)n1.O=C(O)C(F)(F)F [Compound 20, trifluoroacetate salt]

>  <Ki [nM]>
267

$$$$

// field: Ki; key: "Cn1cc2c(nc(NC(=O)Nc3ccc(CC(=O)NCCCCCNC(=O)OC(C)(C)C)cc3)n3nc(-c4ccco4)nc23)n1" ; value = 376

// sample "Cn1cc2c(nc(NC(=O)Nc3ccc(CC(=O)NCCCOCCOCCOCCCNC(=O)OC(C)(C)C)cc3)n3nc(-c4ccco4)nc23)n1" , its Ki was 327

###

- Assayed target: hA2AAR (Homo sapiens (Human))
- Method notes: Radioligand membrane binding assay at hA2A AR ([3H]CGS21680)
- Test conditions: Table 1; HEK293 cells expressing hA2AAR; [3H]CGS21680; read-out: A2A Ki
Recorded Ki for the following molecules
// units = nM; emit number, no label

Take a look at these entries with their results.
>  <Smiles>
C#CCCCC(=O)Nc1nc2ccc(Cl)cc2c2nc(-c3ccco3)nn12

>  <Unit label>
nM

>  <Ki>
51

$$$$
>  <Smiles>
Cn1cc2c(nc(NNC(=S)Nc3ccc(-c4c5ccc(=O)cc-5oc5cc(O)ccc45)c(C(=O)O)c3)n3nc(-c4ccco4)nc23)n1

>  <Unit label>
nM

>  <Ki>
920

$$$$
>  <Smiles>
Cn1cc2c(nc(NCCCCCNC(=S)Nc3ccc(-c4c5ccc(=O)cc-5oc5cc(O)ccc45)c(C(=O)O)c3)n3nc(-c4ccco4)nc23)n1

>  <Unit label>
nM

>  <Ki>
1750

$$$$
>  <Smiles>
Cn1cc2c(nc(NCCCCNC(=S)Nc3ccc(-c4c5ccc(=O)cc-5oc5cc(O)ccc45)c(C(=O)O)c3)n3nc(-c4ccco4)nc23)n1

>  <Unit label>
nM

>  <Ki>
460

$$$$
>  <Smiles>
Cn1cc2c(nc(NCCCOCCOOCCCCCNC(=S)Nc3ccc(-c4c5ccc(=O)cc-5oc5cc(O)ccc45)c(C(=O)O)c3)n3nc(-c4ccco4)nc23)n1

>  <Unit label>
nM

>  <Ki>
6010

$$$$

Field: next molecule
Summary for this molecule, "Cn1cc2c(nc(NCCCNC(=S)Nc3ccc(-c4c5ccc(=O)cc-5oc5cc(O)ccc45)c(C(=O)O)c3)n3nc(-c4ccco4)nc23)n1" : Ki is 2480

###

- Assayed target: hA1 AR (Homo sapiens (Human), UniProt P30542)
- Sequence (P30542 whole entry): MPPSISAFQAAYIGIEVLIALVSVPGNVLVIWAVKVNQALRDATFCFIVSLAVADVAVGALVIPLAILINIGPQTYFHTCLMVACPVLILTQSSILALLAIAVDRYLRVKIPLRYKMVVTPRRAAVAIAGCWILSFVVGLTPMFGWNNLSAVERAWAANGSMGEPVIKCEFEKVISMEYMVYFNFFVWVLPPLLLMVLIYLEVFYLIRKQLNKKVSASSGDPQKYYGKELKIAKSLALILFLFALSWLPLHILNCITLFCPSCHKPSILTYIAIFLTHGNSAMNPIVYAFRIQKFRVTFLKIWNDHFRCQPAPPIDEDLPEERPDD
- Method notes: Radioligand membrane binding assay at hA1 AR ([3H]R-PIA)
- Test conditions: Table 3
Experimental endpoint: A1 % inhibition

Example results:
>  <Molecule>
Cn1cc2c(nc(NC(=O)Nc3ccc(CC(=O)NCCCOCCOCCOCCCNC(=S)Nc4ccc5c(c4)C(=O)OC54c5ccc(O)cc5Oc5cc(O)ccc54)cc3)n3nc(-c4ccco4)nc23)n1 [Compound 26]

>  <Result>
32% ± 6%

$$$$
>  <Molecule>
Cn1cc2c(nc(NC(=O)Nc3ccc(CC(=O)NCCCNC(=S)Nc4ccc5c(c4)C(=O)OC54c5ccc(O)cc5Oc5cc(O)ccc54)cc3)n3nc(-c4ccco4)nc23)n1 [Compound 22]

>  <Result>
27% ± 1%

$$$$
>  <Molecule>
C#CCCCCCC(=O)Nc1nc2nn(C)cc2c2nc(-c3ccco3)nn12 [Compound 39]

>  <Result>
62% ± 3%

$$$$
>  <Molecule>
Cn1cc2c(nc(NC(=O)Nc3ccc(CC(=O)NCCCN)cc3)n3nc(-c4ccco4)nc23)n1.O=C(O)C(F)(F)F [Compound 17]

>  <Result>
9% ± 3%

$$$$

Here is the next item to consider.
Entry Cn1cc2c(nc(NC(=O)Nc3ccc(CC(=O)NCCCOCCOCCOCCCN)cc3)n3nc(-c4ccco4)nc23)n1.O=C(O)C(F)(F)F [Compound 21] ; A1 % inhibition = 1% ± 1%

###

- Assayed target: hA3AR (Homo sapiens (Human))
- Sequence (P0DMS8 whole entry): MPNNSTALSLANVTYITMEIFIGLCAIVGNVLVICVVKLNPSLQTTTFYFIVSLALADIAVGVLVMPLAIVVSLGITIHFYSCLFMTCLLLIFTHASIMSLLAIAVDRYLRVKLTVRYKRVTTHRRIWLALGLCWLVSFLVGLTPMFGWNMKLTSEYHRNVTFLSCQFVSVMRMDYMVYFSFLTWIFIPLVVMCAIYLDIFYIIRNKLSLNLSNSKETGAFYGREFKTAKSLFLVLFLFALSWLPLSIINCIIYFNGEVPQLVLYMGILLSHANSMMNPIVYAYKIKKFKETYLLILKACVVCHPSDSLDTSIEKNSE
- Method notes: Radioligand membrane binding assay at hA3AR ([125I]I-AB-MECA)
- Test conditions: Table 3; read-out: A3 Ki
Ki vs 70 nM: less than gives class 1; not less than gives class 0.

Answered examples (3):
>  <Molecule>
Cn1cc2c(nc(NC(=O)Nc3ccc(CC(=O)NCCCCNC(=O)OC(C)(C)C)cc3)n3nc(-c4ccco4)nc23)n1

>  <Assayed target>
hA3AR (Homo sapiens (Human))

>  <Category>
class 1

$$$$
>  <Molecule>
Cn1cc2c(nc(NC(=O)Nc3ccc(CC(=O)NCCOCCOCCNC(=S)Nc4ccc5c(c4)C(=O)OC54c5ccc(O)cc5Oc5cc(O)ccc54)cc3)n3nc(-c4ccco4)nc23)n1

>  <Assayed target>
hA3AR (Homo sapiens (Human))

>  <Category>
class 0

$$$$
>  <Molecule>
Cn1cc2c(nc(NC(=O)Nc3ccc(CC(=O)NCCCOCCOCCOCCCNC(=S)Nc4ccc5c(c4)C(=O)OC54c5ccc(O)cc5Oc5cc(O)ccc54)cc3)n3nc(-c4ccco4)nc23)n1

>  <Assayed target>
hA3AR (Homo sapiens (Human))

>  <Category>
class 0

$$$$

Regarding Cn1cc2c(nc(NC(=O)Nc3ccc(CC(=O)NCCCCCN)cc3)n3nc(-c4ccco4)nc23)n1.O=C(O)C(F)(F)F [Compound 19, trifluoroacetate salt] , kindly confirm whether its Ki is beneath 70 nM.
class 1

# TODO verify Ki < 70 nM strictly for this molecule: "C#CCCCCCC(=O)Nc1nc2nn(C)cc2c2nc(-c3ccco3)nn12"
class 1

Just wondering, is Ki of "Cn1cc2c(nc(NC(=O)Nc3ccc(CC(=O)NCCOCCOCCNC(=O)OC(C)(C)C)cc3)n3nc(-c4ccco4)nc23)n1" below 70 nM?
class 0

###

# A1 % inhibition per record follows
- Assayed target: hA1 AR (Homo sapiens (Human))
- Method notes: Radioligand membrane binding assay at hA1 AR ([3H]R-PIA)
- Test conditions: Table 3

Below, each entry is followed by its recorded A1 % inhibition result.
>  <Molecule>
Cn1cc2c(nc(NC(=O)Nc3ccc(CC(=O)NCCOCCOCCNC(=S)Nc4ccc5c(c4)C(=O)OC54c5ccc(O)cc5Oc5cc(O)ccc54)cc3)n3nc(-c4ccco4)nc23)n1 [Compound 25]

>  <Experimental endpoint>
A1 % inhibition

>  <Result>
29% ± 1%

$$$$
>  <Molecule>
Cn1cc2c(nc(NC(=O)Nc3ccc(CC(=O)NCCCCCNC(=S)Nc4ccc5c(c4)C(=O)OC54c5ccc(O)cc5Oc5cc(O)ccc54)cc3)n3nc(-c4ccco4)nc23)n1 [Compound 24]

>  <Experimental endpoint>
A1 % inhibition

>  <Result>
21% ± 5%

$$$$
>  <Molecule>
C#CCCC(=O)Nc1nc2nn(C)cc2c2nc(-c3ccco3)nn12 [Compound 36]

>  <Experimental endpoint>
A1 % inhibition

>  <Result>
55% ± 4%

$$$$
>  <Molecule>
Cn1cc2c(nc(NC(=O)Nc3ccc(CC(=O)NCCCCCNC(=O)OC(C)(C)C)cc3)n3nc(-c4ccco4)nc23)n1 [Compound 14]

>  <Experimental endpoint>
A1 % inhibition

>  <Result>
14% ± 3%

$$$$
>  <Molecule>
Cn1cc2c(nc(NC(=O)Nc3ccc(CC(=O)NCCCCNC(=O)OC(C)(C)C)cc3)n3nc(-c4ccco4)nc23)n1 [Compound 13]

>  <Experimental endpoint>
A1 % inhibition

>  <Result>
2% ± 2%

$$$$

Record Cn1cc2c(nc(NC(=O)Nc3ccc(CC(=O)NCCCNC(=O)OC(C)(C)C)cc3)n3nc(-c4ccco4)nc23)n1 [Compound 12] , field A1 % inhibition: 15% ± 5%

###

Experimental endpoint: melting point

>  <Smiles>
Cn1cc2c(nc(NC(=O)Nc3ccc(CC(=O)NCCCN)cc3)n3nc(-c4ccco4)nc23)n1.O=C(O)C(F)(F)F

>  <melting point>
142 to 150 °C

$$$$
>  <Smiles>
C#CCCCCC(=O)Nc1nc2nn(C)cc2c2nc(-c3ccco3)nn12

>  <melting point>
208 to 215 °C (dec.)

$$$$
>  <Smiles>
C#CCCCC(=O)Nc1nc2nn(C)cc2c2nc(-c3ccco3)nn12

>  <melting point>
210 to 216 °C (dec.)

$$$$
>  <Smiles>
Cn1cc2c(nc(NC(=O)Nc3ccc(CC(=O)NCCCOCCOCCOCCCN)cc3)n3nc(-c4ccco4)nc23)n1.O=C(O)C(F)(F)F

>  <melting point>
133 to 140 °C

$$$$
>  <Smiles>
Cn1cc2c(nc(NC(=O)Nc3ccc(CC(=O)NCCCOCCOCCOCCCNC(=O)OC(C)(C)C)cc3)n3nc(-c4ccco4)nc23)n1

>  <melting point>
151 to 158 °C

$$$$

Item: "C#CCCCCCC(=O)Nc1nc2nn(C)cc2c2nc(-c3ccco3)nn12" | melting point: 204 to 208 °C (dec.)

The reported melting point of the compound "Cn1cc2c(nc(NC(=O)Nc3ccc(CC(=O)NCCCCNC(=O)OC(C)(C)C)cc3)n3nc(-c4ccco4)nc23)n1" was 186 to 193 °C

For this compound ( "Cn1cc2c(nc(NC(=O)Nc3ccc(CC(=O)NCCOCCOCCN)cc3)n3nc(-c4ccco4)nc23)n1.O=C(O)C(F)(F)F" ), measured melting point is 152 to 160 °C

Given item "Cn1cc2c(nc(NC(=O)Nc3ccc(CC(=O)NCCCCN)cc3)n3nc(-c4ccco4)nc23)n1.O=C(O)C(F)(F)F" , the value recorded as its melting point is 167 to 173 °C

Entry "Cn1cc2c(nc(NC(=O)Nc3ccc(CC(=O)NCCOCCOCCNC(=O)OC(C)(C)C)cc3)n3nc(-c4ccco4)nc23)n1" ; melting point = 157 to 165 °C

Quick note, melting point for "Cn1cc2c(nc(NC(=O)Nc3ccc(CC(=O)NCCCNC(=O)OC(C)(C)C)cc3)n3nc(-c4ccco4)nc23)n1" landed at 198 to 205 °C

The measured melting point associated with "Cn1cc2c(nc(NC(=O)Nc3ccc(CC(=O)NCCCCCN)cc3)n3nc(-c4ccco4)nc23)n1.O=C(O)C(F)(F)F" reads 170 to 178 °C
